- System: soybean (Glycine max L., var. Pella 86, SOY)
- TEST DETAILS: Pre-emerge greenhouse crop damage test
- Type: in vivo
- RUN CONDITIONS: pre-emerge, 250 g ai/ha, 14 days after application, scale 0-100 (0 no damage, 100 complete death)
READOUT TYPE: Pre-emerge Herbicidal Activity SOY (crop damage rating)

{"columns": ["COMPOUND", "EXPERIMENTAL VALUE"],
 "data": [
  ["CC1Oc2c(Cl)cc(F)c(-c3nn(C)c(OC(F)F)c3Cl)c2NC1=O (stereo not shown) [Compound 10-8]", 15],
  ["Cc1nc2c(-n3ncc(C(F)(F)F)cc3=O)c(F)cc(Cl)c2o1 [Compound 12-1]", 70],
  ["CCc1nc2c(N3C(=O)C4CCCCN4C3=O)c(F)cc(Cl)c2o1 (stereo not shown) [Compound 7-9]", 15],
  ["Nn1c(C(F)(F)F)cc(=O)n(-c2c(F)cc(Cl)c3c2NC(=O)CO3)c1=O [Compound 4-2]", 95],
  ["CCOC(=O)c1nc2c(-n3c(=O)cc(C(F)(F)F)n(C)c3=O)c(F)cc(Cl)c2oc1=O [Compound 3-5]", 0],
  ["CCc1nc2c(N3C(=O)C4CCCCN4C3=S)c(F)cc(Cl)c2o1 (single isomer, unassigned) [Compound 7-5]", 0],
  ["Cn1c(C(F)(F)F)cc(=O)n(-c2c(F)cc(Cl)c3c2NC(=O)CO3)c1=O [Compound 4-1]", 100]
]}

###

- System: field corn (Zea mays L., var. Dekalb 527, CORN)
- TEST DETAILS: Post-emerge greenhouse crop damage test
- Format: in vivo
- RUN CONDITIONS: var. Dekalb 527, field corn (Zea mays L.), in vivo, 14 days
The compounds listed here are annotated with their Post-emerge crop damage CORN (phytotoxicity rating 0-100).
READOUT TYPE: Post-emerge crop damage CORN (phytotoxicity rating 0-100)

{"columns": ["COMPOUND", "EXPERIMENTAL VALUE"],
 "data": [
  ["Cc1nc2c(-n3c(=O)cc(C(F)(F)F)n(C)c3=O)c(F)cc(Cl)c2oc1=O", 0],
  ["CCc1nc2c(-n3c(=O)n4n(c3=S)CCC=C4)c(F)cc(Cl)c2o1", 80],
  ["Cn1c(C(F)(F)F)cc(=O)n(-c2ccc(Cl)c3ccccc23)c1=O", 0],
  ["Cn1c(C(F)(F)F)cc(=O)n(-c2c(F)cc(Cl)c3c2NCCO3)c1=O", 20],
  ["Cn1c(C(F)(F)F)cc(=O)n(-c2c(F)cc(Cl)c3c2N=C(c2ccccc2)CO3)c1=O", 10],
  ["COC(=O)CC1CNc2c(c(Cl)cc(F)c2-n2c(=O)cc(C(F)(F)F)n(C)c2=O)O1 (stereo not shown)", 70],
  ["CC1Oc2c(Cl)cc(F)c(-n3c(=O)cc(C(F)(F)F)n(C)c3=O)c2NC1=O (stereo not shown)", 100]
]}

###

- Test system: field corn (Zea mays L., var. Dekalb 527, CORN)
- TEST DETAILS: Pre-emerge greenhouse crop damage test
- Type: in vivo
- RUN CONDITIONS: pre-emerge, 250 g ai/ha, 14 days after application, scale 0-100 (0 no damage, 100 complete death)
READOUT TYPE: Pre-emerge Herbicidal Activity CORN (crop damage rating)

{"columns": ["COMPOUND", "EXPERIMENTAL VALUE"],
 "data": [
  ["Cc1nc2c(-n3ncc(C(F)(F)F)cc3=O)c(F)cc(Cl)c2o1 [Compound 12-1]", 100],
  ["Cn1c(C(F)(F)F)cc(=O)n(-c2c(F)cc(Cl)c3c2NC(=O)CO3)c1=O [Compound 4-1]", 90],
  ["CCc1nc2c(N3C(=O)C4CCCCN4C3=S)c(F)cc(Cl)c2o1 (single isomer, unassigned) [Compound 7-5]", 0],
  ["CCc1nc2c(N3C(=O)C4CCCCN4C3=O)c(F)cc(Cl)c2o1 (stereo not shown) [Compound 7-9]", 0],
  ["Nn1c(C(F)(F)F)cc(=O)n(-c2c(F)cc(Cl)c3c2NC(=O)CO3)c1=O [Compound 4-2]", 100],
  ["CCOC(=O)c1nc2c(-n3c(=O)cc(C(F)(F)F)n(C)c3=O)c(F)cc(Cl)c2oc1=O [Compound 3-5]", 0],
  ["CC1Oc2c(Cl)cc(F)c(-c3nn(C)c(OC(F)F)c3Cl)c2NC1=O (stereo not shown) [Compound 10-8]", 0]
]}

The reported measurements were obtained from patent US6573218B1.
